Reference source: patent US20250034594A1

# Test system: gene editing with Cas9
# experimentalProtocol: Screen of 322 new SSAP proteins, gene editing activity with Cas9 (Table 5)
# Type: cell-based
# measurementSetup: normalized
# Source text: 322 new SSAP proteins were identified from sequence data, synthesized, and screened for activity with Cas9 and dCas9. Gene editing activities are shown below in Table 5, followed by amino acid sequences of the proteins.
experimentalReadout: Cas9 with SSAP activity (normalized)
Keep the answer to the number alone.

| molecule | observed |
| --- | --- |
| SSAP_107: SEQ ID NO: 276; Ammoniphilus oxalaticus (protein, listed as Ammoniphilus oxalaticus) STKATSNELKNQLANRQGNNAATNNNPANTIAAYLKRMAPEIEKALPAHMDADRLARIALTTIRTTPKLLECTIPSLMGAVMQSAQLGLEPGLIGHCYIIPYGKEATFIIGYKGMIDLARRSGNIESIYAHAVYKNDEFEYEYGLKPNLVHKPAMSDQGDFIGAYAVAHFKDGGYQFEFMPKEEIDKRRNRSAASKGGPWVTDYEEMAKKTVVRHMWKYLPISIEIQQAATQDEVVRKDITEDPMPVDVLDIPFEASDAEETSEEGEINFD | 1.792 |

Continue with the next molecule.
Record SSAP_70: SEQ ID NO: 239 (protein) SNLKNQLANKAGGTATKKQPQTMQDWIKVMEPQIKKALPSVITAERFTRMALTAISTNPKLAECTPESFMGALMNAAQLGLEPNTPLGQAYLIPYGKSVQFQVGYKGLMELAQRSGQFKSIYAHTVYENDEFEVEYGLTQNIVHKPNFDDRGKPIGFYAVYKLTNGGENFVFMTQREVEEFGKAKSKTFNNGPWKTDFEAMAKKTVLKQLLKYAPIKVEFQREIAQDATIKTEIAEDMTEVPEEMVEAEYEVVEQNTMAEDADLKGTPFETK , field Cas9 with SSAP activity (normalized): −0.349
